tested on: MS2 coat protein; assay: apparent Kd, MS2 coat protein; higher = weaker binding; RNA-MaP array; settings: ligand present: flavin mononucleotide; designed as: OFF switch for flavin mononucleotide
Result type: apparent Kd (nM)
The answer is to be given in nM; state only the numeric part.

apparent Kd recorded for this sequence, "UUAGCACAUGAGGAUCACCCAUGUCAGGAUAUACGGAAUGUCCUCUACAGGGCGCGCUGUAGAAGGGACCGGGC" , is 9.76

apparent Kd recorded for this sequence, "UUAUAUCUUUAGGAUAUGCUGUGUCGGCAACUAGCAGAAGGAAAGACAUGAGGAUCACCCAUGUUGGUGCGUUC" , is 249

apparent Kd recorded for this sequence, "ACCUCGUAAGGAUAUAGAUGCCCGUACACAACAACAGAACUCUAGAAGGUACAUGAGGAUCACCCAUGUUGAUG" , is 20.9

apparent Kd recorded for this sequence, "GCGGGACUGUAGAAGGGUUAUCCUUAAGGUCUGAUCACAUGAGGAUCACCCAUGUAACGGGUGGAACAGGAUAUACCAGAUCGC" , is 48.4

apparent Kd recorded for this sequence, "CUUCAACAUGAGGAUCACCCAUGUAAGGAUAUCUGCCUCACAGCACCAAAGUGCGGGAAGAGAAGGUACGUAGU" , is 14.5

apparent Kd recorded for this sequence, "GUACCUCCCAAAGGAUAUGGACCGCAGACAUGAGGAUCACCCAUGUAGGACGCACUGUUUGCGCGCCAGAAGGUUGUUAAUCGC" , is 73.2

apparent Kd recorded for this sequence, "ACGUUGCAGCAAGGAUAUUCGAGACUACUAGAAGAAGAAGGUGCCGUGCUCUUCACAUGAGGAUCACCCAUGUGGCGUUAAUUU" , is 8.35

apparent Kd recorded for this sequence, "AGUGCAAAUGUAGGAUAUGGACAUGAGGAUCACCCAUGUCAUUAAUAUUAUCGGUCCAAUUUUCUCCAGAAGGACAAAGGCUUG" , is 10.1

apparent Kd recorded for this sequence, "UUAUAGGAAGGAUAUACAUGAGGAUCACCCAUGUUCAAACCAACGCACUAUCAUAAAUGUAGAAGGACCAACCC" , is 10.1

apparent Kd recorded for this sequence, "UUUAUAAUCGUAAGGAUAUCCGCGUUAGUCCACCCGGAGAAGGUACAUGAGGAUCACCCAUGUGAACUAUGGGU" , is 28.5

apparent Kd recorded for this sequence, "AGCCAAUAAGGAUAUACAUUUAGAGAUCAUCGUACAAAGUAACAUGAGGAUCACCCAUGUAGAAGGUAUGCAGC" , is 11.3

apparent Kd recorded for this sequence, "ACUCGUUAAGGAUAUACUCGGUUUACUUGCAUGUUCGGCGCACAUGAGGAUCACCCAUGUAGAAGGUAAUAUUC" , is 27.2

apparent Kd recorded for this sequence, "CUUUACAUAUGUAUGUGGGUUACAUGAGGAUCACCCAUGUGAAGAAGGCUCACCUCAAGCGCAAGAGAGGAUAUUCACGGGUCC" , is 104

apparent Kd recorded for this sequence, "AGGCAACAUGAGGAUCACCCAUGUCAGGAUAUAGUAAACACAAAUACGAGAAAUAUAACUAGAAGGGACAUAAU" , is 18.5

apparent Kd recorded for this sequence, "UACUGCAAACAGAAGGUUGGAAGUCGGUUCUCCAAAGGAUAUGUACAUGAGGAUCACCCAUGUGCGCAAAUCGCACAGAGGAGG" , is 36.9

apparent Kd recorded for this sequence, "GAUUUGUGAGGAUAUCAUUAGAAACAAGUAUGAGGCGAAAGUGAGAAGGCACAUGAGGAUCACCCAUGUUGGAA" , is 15.7

apparent Kd recorded for this sequence, "ACGUUCCUGAGAGGAUAUUCCAACAUGAGGAUCACCCAUGUAGAUGGUCGAUGCUUCCAUUCAGCGAAGAAGGCUCUAAAGGGC" , is 15.7

apparent Kd recorded for this sequence, "CUUGUAACCUAAGGAUAUGAUUAGGGCAUCACAUGAGGAUCACCCAUGUGGCGUGAUCCGAGCCUUCAGAAGGUAGGGGAGCAU" , is 479

apparent Kd recorded for this sequence, "CAUUCGAAGGUGAGGAUAUAGCUACAGUUAAAUGUCUAGAAGGCACAUGAGGAUCACCCAUGUAGGGUCUCUCA" , is 630

apparent Kd recorded for this sequence, "CGCAAACUAGGAUAUACAGGGCGAAAACGUUUACUUGGAUAACAUGAGGAUCACCCAUGUAGAAGGAGUUCUUA" , is 160

apparent Kd recorded for this sequence, "GCAGGCGAAGGAUAUACAUGAGGAUCACCCAUGUGUCAAACAAUAAUACCACUCAACUGUAGAAGGUCGGGCGA" , is 11.4

apparent Kd recorded for this sequence, "CCAUGCGUUGAGAAGGUGCUCGGGAAUCCACAUGAGGAUCACCCAUGUUGACUAGUAAGGCAUCGCAAGGAUAUCAGCUAUCUC" , is 25.3

apparent Kd recorded for this sequence, "GAUCUAUCAGGAUAUAAGGCCUUGAACAUGAGGAUCACCCAUGUCCUCUUGGUUGCCGCGUUAGAAGGGAUGUGUU" , is 171

apparent Kd recorded for this sequence, "CUAGAACAUGAGGAUCACCCAUGUCAGGAUAUUCUUGGAUGCAUCCAAGCGAAAACAAGAAGAAGGGACGUAUA" , is 10.4

apparent Kd recorded for this sequence, "CGUUAAGGCGAGAAGGUGCCGUCCAACAUGAGGAUCACCCAUGUCGGUCGGUGAAUCAAGAGACGCAAGGAUAUCGACAUUAAC" , is 3.46

apparent Kd recorded for this sequence, "UGUAUAGCGGCAGGAUAUGAGAGUGUAGGUGCUUCAGAAGGGCCAUGUGACGCUUUAAAUGGGACACAUGAGGAUCACCCAUGU" , is 13.5

apparent Kd recorded for this sequence, "UGAAAACCGUCAUAAACAAACAUGAGGAUCACCCAUGUAGCUAAGGAUAUUGACAAACAAAGACUCAAGAAGGUAGAACCUACA" , is 7.26

apparent Kd recorded for this sequence, "CGUAACCAAGGAUAUACAUGAGGAUCACCCAUGUAUCGGGUCGGUCUGGGUCCAAUAAGUAGAAGGUGGCUGAU" , is 39.7

apparent Kd recorded for this sequence, "GCGUGGUAAGGAUAUGUGUACGUCCGGUAGUAUAGCGUACAACAGAAGGUACAUGAGGAUCACCCAUGUGUCCG" , is 7.94

apparent Kd recorded for this sequence, "UAAGAUUCUGUAGGAUAUCAAAUACAUGAGGAUCACCCAUGUAACCUGAUUUCUGAUCCUCAGUGUGAGAAGGACAAUUAAGCC" , is 21.2
